Reported values of IC50 for individual entries
# SYSTEM: CYP2D6 (Homo sapiens, UniProt P10635)
# Sequence (P10635 whole entry): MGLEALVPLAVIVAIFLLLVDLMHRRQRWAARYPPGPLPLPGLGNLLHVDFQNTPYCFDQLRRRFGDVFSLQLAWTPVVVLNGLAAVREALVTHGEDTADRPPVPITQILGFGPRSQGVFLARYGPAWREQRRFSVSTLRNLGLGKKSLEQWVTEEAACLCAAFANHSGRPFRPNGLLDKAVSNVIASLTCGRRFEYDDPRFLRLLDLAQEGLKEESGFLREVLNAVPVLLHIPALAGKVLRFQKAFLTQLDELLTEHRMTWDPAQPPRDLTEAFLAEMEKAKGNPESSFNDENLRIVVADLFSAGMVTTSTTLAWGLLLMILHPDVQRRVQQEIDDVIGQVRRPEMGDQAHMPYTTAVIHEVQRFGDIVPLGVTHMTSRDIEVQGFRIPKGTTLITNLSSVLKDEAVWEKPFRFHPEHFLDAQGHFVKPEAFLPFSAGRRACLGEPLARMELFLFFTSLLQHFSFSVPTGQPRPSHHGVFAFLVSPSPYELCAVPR
# METHOD: In vitro inhibition of human cytochrome P450 CYP2D6 (fluorometric, 3-[2-(N,N diethyl-N-methylamino)ethyl]-7-methoxy-4-methylcoumarin substrate)
# Type: in vitro ADME
# EXPERIMENTAL_CONDITIONS: 40 minutes at 37° C.; read-out: IC50 for inhibition of CYP2D6
Give the quantity in µM, number only.

COMPOUND	MEAS_VALUE
[2H]C1([2H])Oc2ccc(CCN3CCCC(OC(c4ccccc4)c4ccccc4)C3)cc2O1 (stereo not drawn)	0.4

Query: So what does the record say about IC50 for [2H]C1([2H])Oc2ccc(C([2H])([2H])C([2H])([2H])N3CCCC(OC(c4ccccc4)c4ccccc4)C3)cc2O1 (stereo not drawn) ?
Reply: 0.42

Query: So what does the record say about IC50 for c1ccc(C(OC2CCCN(CCc3ccc4c(c3)OCO4)C2)c2ccccc2)cc1 (stereo not drawn) [zamifenacin, reference compound] ?
Reply: 0.33

The reported measurements were obtained from patent US20090005309A1.
